Recorded melting point by entry

For orientation, consider the following solved cases.
Item "CCCCCNc1nc(C)c(C(=O)c2ccc(N)c([N+](=O)[O-])c2)s1" has what recorded melting point?
165 to 169 °C

Item O=C(NC1CCC(CCN2CCC(c3cccc4c3CCO4)CC2)CC1)C1CCCO1 (racemic) has what recorded melting point?
160 °C

Item "O=C(Nc1cccc(C(=O)Nc2ccccc2)c1)Nc1nnc(-c2cc(Cl)cc(Cl)c2O)s1" has what recorded melting point?
298 °C

Item "O=C(CCN1CCN(c2cccc(C(F)(F)F)c2)CC1)c1ccc2c(c1)Cc1cc(C(=O)CCN3CCN(c4cccc(C(F)(F)F)c4)CC3)ccc1O2" has what recorded melting point?
155 to 157 °C

More entries:
Item O=C1Cc2c(cc3ccccc3c2Cl)C(c2ccccc2F)N1 (centres undefined) has what recorded melting point?
206 to 209 °C

Item NS(=O)(=O)c1cc2c(s1)CCCC2O (centres undefined) has what recorded melting point?
102 to 103 °C

Item "CCCc1nc2c(N)nc3ccccc3c2n1OCC" has what recorded melting point?
198 to 199 °C

Item CC1C(C#N)=C(N)OC2=C1C(=O)CC(c1cccc3ccccc13)C2 (centres undefined) has what recorded melting point?
204 to 206 °C

Item CC(C)(C)CCc1nn(-c2ccc(F)cc2F)c2c1C1CCC2C1 (centres undefined) has what recorded melting point?
54 to 57 °C

Item "COc1ccc(CCCCCCCSc2ccccc2)cc1" has what recorded melting point?
58 to 59 °C

Item O=C(O)c1cccc(OCCNC(=O)C2Cc3ccccc3N2S(=O)(=O)c2ccc(-c3cccc(C(F)(F)F)c3)cc2)c1 (centres undefined) has what recorded melting point?
85 to 92 °C

Item "O=C(O)C(=O)c1cn(Cc2ccccc2)c2ccc(Oc3ccc(C(F)(F)F)cc3Cl)cc12" has what recorded melting point?
152 to 154 °C
